assayMethodText: TLR3 IRF3 reporter activation blockers – cell-based, poly I:C stimulus, luciferase, 10K MLSCN set, primary screen (AID 602277)
measurementConditions: HEK293-TLR3 RL24 IRF3 luciferase reporter, at 10 µM, stronger effect = higher value
experimentalReadout: inhibition (%)

compound | val
CC1(C)C(c2ccccc2)=NC(c2ccccc2)N1O (stereo not drawn) | 35.3
CCOC(=O)N1CCC(N(CCCOC)C(=O)Nc2ccc(CC)cc2)CC1 | 9.22
CC1(C)CNC(=O)CC(C)(C)N1O | 19.7
COc1ccc(C(CNC(=O)c2cc(C)oc2C)N2CCOCC2)cc1 (stereo not drawn) | 15.8
Cc1noc(/C=C/N(C)C)c1S(=O)(=O)N1CCCC(C(=O)N2CCc3ccccc32)C1 (stereo not drawn) | 45.3
Cc1c(NC(=O)CCc2ccc(S(=O)(=O)N3CCOCC3)cc2)c(=O)n(-c2ccccc2)n1C | 5.48
c1cnc2c(SCc3ccc(-c4nnco4)cc3)cccc2c1 | -92.3
CC(C)C(c1nnnn1CC1CCCO1)N1CCN(Cc2ccc3c(c2)OCO3)CC1 (stereo not drawn) | 12.5

###

Recorded nuclei count values for a group of molecules are listed next.
assayMethodText: endothelial E-selectin expression blockers – imaging, HUVEC, immunofluorescence, MLSMR starter and 10KST1 sets, primary screen (AID 487);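 further: 100% = median nuclei count of all wells on the same plate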
measurementConditions: HUVEC TNFalpha-induced E-selectin immunofluorescence imaging, at 2 µM; measured here: cell number, toxicity
experimentalReadout: nuclei count (%)

molecule | val
CC1=C(C(N)=O)C(c2cccnc2)n2nc(SCc3ccccc3Cl)nc2N1 (configuration not stated) | 107
C[C@@H]1C[C@H](O)c2cc(Cl)ccc2N1 | 114
CC(C)CC(=O)Nc1ccccc1-c1nnn(CC(=O)N2CCOCC2)n1 | 106
Cc1cc(C)nc(SCC(=O)Nc2ccc(S(=O)(=O)Nc3nccs3)cc2)n1 | 116
Cc1ccc(OCc2nnc(SCC(=O)N3CCOCC3)n2C)cc1 | 116
O=C(Nc1ccc(Cc2ccc(NC(=O)N3CCOCC3)cc2)cc1)N1CCOCC1 | 82.3
CCn1cc(C(=O)O)c(=O)c2cc(F)c(N3CCN(C(=O)Nc4ccccc4)CC3)cc21 | 101
C=CCN1C(=O)C2(C(C#N)=C(N)Oc3n[nH]c(CCC)c32)c2ccccc21 (configuration not stated) | 114
CC1=Nn2c(nnc2-c2ccccn2)SC1 | 198
CCOc1ccc(N(CC(=O)Nc2ccc(C)c(C)c2)S(=O)(=O)c2c(C)noc2C)cc1 | 100
CCCCn1c(NC(=O)CC)c(C#N)c2nc3ccccc3nc21 | 64.7
O=C1c2ccccc2NC2CCCCCN12 (configuration not stated) | 110
COc1ccccc1CNC(=O)C1CCC(CNc2c(N3CCOCC3)c(=O)c2=O)CC1 (configuration not stated) | 122
COc1ccc(-n2c(Cc3cccn3C)nnc2SCC(N)=O)cc1 | 99.3
CC(=O)c1ccc(-c2nc3ccccc3n2C)o1 | 108
Cn1c(=O)cc(NCCc2ccccc2)[nH]c1=O | 156
Cc1ccc(NC(=O)c2ccco2)c(NC(=O)c2cccs2)c1 | 111
COCCOC(=O)/C=C1/NC(=O)CS1 | 98.3
CC(=O)NC(Cc1cc(C)ccc1C)C(=O)N1CCN(C(=O)Nc2ccc(C(C)=O)cc2)CC1 (configuration not stated) | 99.8
CCOC(=O)c1ccc(NC(=O)c2ccc(NS(C)(=O)=O)cc2)cc1 | 95.1
Cc1cc(C)n(-c2ccc(C(=O)Oc3ccc4c(c3)OCO4)cc2)n1 | 148
CSCCC(C(=O)Nc1ccc2c(c1)OCO2)N1C(=O)c2ccccc2C1=O (configuration not stated) | 107
CCOC(=O)CNC(=O)CSc1nnnn1-c1cc(C)ccc1C | 82
CCOc1ccccc1NC(=O)CSc1nnc2c(CC)c(C)nc(N)n12 | 92.7
C=CCn1c(SCC(=O)NCC2CCCO2)nc2scc(-c3ccco3)c2c1=O (configuration not stated) | 98.7
O=[n+]1cc(-c2ccc(F)cc2)n([O-])c2c1CCC2 | 108
Cc1ccccc1N1C(N)=NC(N)=NC1(C)C | 110
O=C(Cn1nnc2ccccc2c1=O)NC1CCCc2ccccc21 (configuration not stated) | 92.5
O=C(COc1ccccc1Cl)NCc1ccco1 | 115
Cc1csc(SCc2nc3sc4c(c3c(=O)[nH]2)CCC4)n1 | 171
O=C1NC(=O)C(CC(=O)N(Cc2ccco2)C2(C(=O)NC3CCCC3)CCCCC2)N1 (configuration not stated) | 127
O=C(C1CCN(S(=O)(=O)c2cccc3cccnc23)CC1)N1CCN(C2CCCCC2)CC1 | 106

###

testSystem: Voltage-gated potassium channel subunit beta-2 (Rattus norvegicus) (UniProt P62483)
Sequence (P62483 whole entry, looked up): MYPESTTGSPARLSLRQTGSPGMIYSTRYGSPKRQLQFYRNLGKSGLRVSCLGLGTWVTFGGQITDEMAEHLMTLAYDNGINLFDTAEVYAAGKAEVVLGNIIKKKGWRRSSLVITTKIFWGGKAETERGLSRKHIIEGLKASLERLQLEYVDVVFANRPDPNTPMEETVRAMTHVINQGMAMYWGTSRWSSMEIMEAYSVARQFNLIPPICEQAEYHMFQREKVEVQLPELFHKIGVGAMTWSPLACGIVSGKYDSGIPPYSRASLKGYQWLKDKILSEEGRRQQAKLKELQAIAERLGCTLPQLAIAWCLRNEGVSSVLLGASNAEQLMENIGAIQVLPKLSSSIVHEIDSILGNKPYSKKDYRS
assayMethodText: inhibitors of rat Kvbeta2 reductase activity – biochemical, NADPH fluorescence, primary screen (AID 622);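 further: slope of raw intensity against log time taken from 70 to 1610 s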
measurementConditions: recombinant KvBeta, 4-cyanobenzaldehyde reduction, at 10 µM, stronger effect = higher value
So basically: fluorescence slope at -0.5 or higher? That is 1. Lower than -0.5? That is 0.

compound | testSystem | categoryLabel
Cc1cc(NC(=O)CCOc2ccccc2)no1 | Voltage-gated potassium channel subunit beta-2 (Rattus norvegicus) (UniProt P62483) | 1
COc1ccc(OC)c(-c2nnc(SCC(=O)NC3CCCCC3)o2)c1 | Voltage-gated potassium channel subunit beta-2 (Rattus norvegicus) (UniProt P62483) | 0
COc1ccc(C(=O)N2CCN(S(=O)(=O)c3cc(Cl)ccc3OC)CC2)cc1 | Voltage-gated potassium channel subunit beta-2 (Rattus norvegicus) (UniProt P62483) | 1
Cc1ccc(S(=O)(=O)N2CCN(S(C)(=O)=O)C2c2ccccc2)cc1 (stereo not drawn) | Voltage-gated potassium channel subunit beta-2 (Rattus norvegicus) (UniProt P62483) | 1
COCc1ccccc1Cn1cnc2c1c(=O)n(C)c(=O)n2C | Voltage-gated potassium channel subunit beta-2 (Rattus norvegicus) (UniProt P62483) | 1
COc1ccc(N2CCN(C(=O)COc3ccc4ccccc4c3)CC2)cc1 | Voltage-gated potassium channel subunit beta-2 (Rattus norvegicus) (UniProt P62483) | 1
c1ccc(OCc2nc(-c3ccccc3)no2)cc1 | Voltage-gated potassium channel subunit beta-2 (Rattus norvegicus) (UniProt P62483) | 0
Nc1nnn(Cc2ccccc2)n1 | Voltage-gated potassium channel subunit beta-2 (Rattus norvegicus) (UniProt P62483) | 0
CCn1c(SCc2nc3ccccc3c(=O)[nH]2)nnc1-c1cccnc1 | Voltage-gated potassium channel subunit beta-2 (Rattus norvegicus) (UniProt P62483) | 0
COc1ccc(-c2nc(CSCC(=O)N3CCN(c4cccc(C)c4)C(C)C3)c(C)o2)cc1OC (stereo not drawn) | Voltage-gated potassium channel subunit beta-2 (Rattus norvegicus) (UniProt P62483) | 1
CCCN1C=CC(=C2C(=O)c3ccccc3C2=O)C=C1 | Voltage-gated potassium channel subunit beta-2 (Rattus norvegicus) (UniProt P62483) | 1
COC(=O)c1sc(N2C(=O)C(O)=C(C(=O)c3ccc(C)o3)C2c2ccc(F)cc2)nc1C (stereo not drawn) | Voltage-gated potassium channel subunit beta-2 (Rattus norvegicus) (UniProt P62483) | 1
CCC1CCc2c(sc3ncnc(N4CCOCC4)c23)C1 (stereo not drawn) | Voltage-gated potassium channel subunit beta-2 (Rattus norvegicus) (UniProt P62483) | 1
Nc1nc(NCc2ccco2)nn1-c1ccccc1 | Voltage-gated potassium channel subunit beta-2 (Rattus norvegicus) (UniProt P62483) | 1
Cc1cccc(-n2ncc3c(NCCCn4ccnc4)ncnc32)c1 | Voltage-gated potassium channel subunit beta-2 (Rattus norvegicus) (UniProt P62483) | 1
COc1ccc(C(=O)Nc2ccc(C)cn2)c(OC)c1 | Voltage-gated potassium channel subunit beta-2 (Rattus norvegicus) (UniProt P62483) | 1
CCOc1ccc(C2CC(c3cccc(OC)c3)Nc3nc(N)nn32)cc1 (stereo not drawn) | Voltage-gated potassium channel subunit beta-2 (Rattus norvegicus) (UniProt P62483) | 0
C/C(Nc1cccc(F)c1)=C(/C#N)C(N)=O | Voltage-gated potassium channel subunit beta-2 (Rattus norvegicus) (UniProt P62483) | 1
O=C1CC(c2ccccc2)CC(O)=C1C=NCCN1CCOCC1 (stereo not drawn) | Voltage-gated potassium channel subunit beta-2 (Rattus norvegicus) (UniProt P62483) | 1
Cc1ccc(N2CCN(C(=S)c3ccc(N(C)C)cc3)CC2)cc1 | Voltage-gated potassium channel subunit beta-2 (Rattus norvegicus) (UniProt P62483) | 0
COCCn1c(SCC(=O)Nc2ccc3c(c2)OCCO3)nc2c(c1=O)SC(C)C2 (stereo not drawn) | Voltage-gated potassium channel subunit beta-2 (Rattus norvegicus) (UniProt P62483) | 1
CNC(=O)CSc1nnc(-c2cc3c(C)nn(-c4ccccc4)c3s2)n1C | Voltage-gated potassium channel subunit beta-2 (Rattus norvegicus) (UniProt P62483) | 1
COCCCNC(=O)Cn1cc2c(n1)CCC(C)C2 (stereo not drawn) | Voltage-gated potassium channel subunit beta-2 (Rattus norvegicus) (UniProt P62483) | 0
CCCCCC1CC(CC(C)C(=O)Nc2nncs2)C(=O)O1 (stereo not drawn) | Voltage-gated potassium channel subunit beta-2 (Rattus norvegicus) (UniProt P62483) | 1
CCC(CC)n1[nH]c(=O)c2c(C)cc(C)nc21 | Voltage-gated potassium channel subunit beta-2 (Rattus norvegicus) (UniProt P62483) | 1
CCOc1nc(-c2ccccc2)ccc1-c1noc(-c2ccc(OC)c(OC)c2)n1 | Voltage-gated potassium channel subunit beta-2 (Rattus norvegicus) (UniProt P62483) | 1
CC(CCc1ccccc1)NC(=O)CSc1nc(N)cc(N)n1 (stereo not drawn) | Voltage-gated potassium channel subunit beta-2 (Rattus norvegicus) (UniProt P62483) | 1
O=C(c1ccc(Cl)cc1)N1CCCCC(Sc2nnc(-c3ccc4c(c3)OCO4)o2)C1=O (stereo not drawn) | Voltage-gated potassium channel subunit beta-2 (Rattus norvegicus) (UniProt P62483) | 0
CCOc1cccc2cc(C(=O)N3CCN(C/C=C/c4ccccc4)CC3)c(=O)oc12 | Voltage-gated potassium channel subunit beta-2 (Rattus norvegicus) (UniProt P62483) | 1
O=C(CSc1nc2ccccc2s1)N1CCN(C(=O)c2ccco2)CC1 | Voltage-gated potassium channel subunit beta-2 (Rattus norvegicus) (UniProt P62483) | 1
O=S(=O)(NCc1ccccc1)c1ccc2c(c1)OCCO2 | Voltage-gated potassium channel subunit beta-2 (Rattus norvegicus) (UniProt P62483) | 0
CC(NC(=O)c1cn(C)c2ccc(S(=O)(=O)N3CCCC3)cc2c1=O)c1ccc2c(c1)OCCO2 (stereo not drawn) | Voltage-gated potassium channel subunit beta-2 (Rattus norvegicus) (UniProt P62483) | 1
Cc1cc(C)n(S(=O)(=O)c2cc(C(=O)O)c(Cl)cc2Cl)n1 | Voltage-gated potassium channel subunit beta-2 (Rattus norvegicus) (UniProt P62483) | 1
O=C(NCC(c1cccnc1)N1CCOCC1)c1ccco1 (stereo not drawn) | Voltage-gated potassium channel subunit beta-2 (Rattus norvegicus) (UniProt P62483) | 1
Cn1c(C(=O)N2CCN(C(=O)c3ccco3)CC2)cc2c(=O)n3ccccc3nc21 | Voltage-gated potassium channel subunit beta-2 (Rattus norvegicus) (UniProt P62483) | 1
Cc1cc(C)n2nc[n+](C)c2n1 | Voltage-gated potassium channel subunit beta-2 (Rattus norvegicus) (UniProt P62483) | 0
